The entries below are paired with their reported IC50.
- testedTarget: HLA-DR DRB4*0101 (DR53) (Homo sapiens, UniProt P01903+P13762, G164S)
- protocolNotes: biochemical
- Format: binding
- conditionsUsed: DRB4 *0101
Lab note: write values as number then unit, every time.

Check out these entries, answers already filled in.
CC[C@H](C)[C@H](NC(=O)[C@@H](NC(=O)[C@@H](N)CO)C(C)C)C(=O)N[C@@H](CC(C)C)C(=O)N[C@@H](CC(C)C)C(=O)NCC(=O)N[C@@H](CCCNC(=N)N)C(=O)N[C@@H](Cc1c[nH]cn1)C(=O)N[C@@H](CO)C(=O)N[C@@H](CC(C)C)C(=O)N[C@@H](Cc1ccccc1)C(=O)N[C@@H](Cc1c[nH]cn1)C(=O)N1CCC[C@H]1C(=O)N[C@@H](CCC(=O)O)C(=O)N[C@@H](CC(=O)O)C(=O)O [SVILLGRHSLFHPED] = 4410 nM
CC[C@H](C)[C@H](NC(=O)[C@@H](NC(=O)[C@@H]1CCCN1C(=O)CN)C(C)C)C(=O)N1CCC[C@H]1C(=O)N[C@@H](CCC(N)=O)C(=O)N[C@@H](CC(=O)O)C(=O)N[C@@H](Cc1c[nH]c2ccccc12)C(=O)N[C@@H](CO)C(=O)N[C@H](C(=O)N[C@@H](CCC(=O)O)C(=O)N[C@@H](CS)C(=O)N[C@@H](CCSC)C(=O)N[C@H](C(=O)N[C@H](C(=O)O)[C@@H](C)O)[C@@H](C)O)[C@@H](C)O = 961 nM
CC(C)C[C@H](NC(=O)[C@H](CO)NC(=O)[C@H](CC(C)C)NC(=O)[C@H](CO)NC(=O)[C@H](C)NC(=O)[C@H](C)NC(=O)[C@H](CCCNC(=N)N)NC(=O)[C@H](C)NC(=O)[C@H](CC(C)C)NC(=O)[C@H](CC(C)C)NC(=O)[C@H](CC(C)C)NC(=O)[C@@H]1CCCN1C(=O)[C@H](C)N)C(=O)NCC(=O)N[C@@H](Cc1ccccc1)C(=O)O = 59 nM
CC[C@H](C)[C@H](NC(=O)[C@H](CC(C)C)NC(=O)[C@H](CCCCN)NC(=O)[C@H](CCCCN)NC(=O)[C@@H](N)Cc1ccc(O)cc1)C(=O)N[C@@H](CCSC)C(=O)N[C@@H](Cc1ccc(O)cc1)C(=O)N[C@@H](CO)C(=O)N[C@@H](C)C(=O)N[C@@H](Cc1c[nH]cn1)C(=O)N[C@@H](CC(=O)O)C(=O)N[C@H](C(=O)N[C@H](C(=O)N[C@H](C(=O)N[C@@H](CO)C(=O)O)C(C)C)[C@@H](C)O)[C@@H](C)O = 5.8 nM

Let's switch to this compound now.
Req: # returns recorded IC50 (system: HLA-DR DRB4*0101 (DR53) (Homo sapiens, UniProt P01903+P13762, G164S)) for "CC[C@H](C)[C@H](NC(=O)CNC(=O)[C@H](CCCNC(=N)N)NC(=O)[C@H](CCCNC(=N)N)NC(=O)[C@H](Cc1ccc(O)cc1)NC(=O)[C@H](C)NC(=O)[C@H](Cc1ccc(O)cc1)NC(=O)[C@@H](N)CCC(=O)O)C(=O)N[C@@H](C)C(=O)N[C@@H](CCC(=O)O)C(=O)N[C@@H](C)C(=O)N[C@H](C(=O)NCC(=O)N[C@@H](CC(C)C)C(=O)N1CCC[C@H]1C(=O)O)C(C)C"
Resp: 6320 nM

====

- testedTarget: HLA-DR DRB1*0802 (DR8) (Homo sapiens, UniProt P01903+P01911, A100R/A103L/A169T/F76Y/H45Y/I96F/K41T/L162R/M171V/P40S/Q125H/Q178H/Q39Y/Q99D/R218S/R42G/S66Y/V115G/W38E)
- protocolNotes: biochemical
- Type: binding
- conditionsUsed: read-out: DRB1 *0802
pIC50: −log10 of the molar value.
Please enter yes where pIC50 is greater than or equal to 5, and no where it is lower.

TYSYSFDSLFSAVKN = yes
ESTGMTPEKVPVSEVMGT = no
LAHYDVLLSYPNK = yes

Req: hey, is pIC50 for this one >= 5? "CCTSICSLYQLENY"
Resp: no

Req: hey, is pIC50 for this one >= 5? "TLERPKTLSPQKNGV"
Resp: no

Req: hey, is pIC50 for this one >= 5? "ALIYNYGLLYCFRKD"
Resp: no

Req: hey, is pIC50 for this one >= 5? "QKQLLTNHLINTPK"
Resp: no

Req: hey, is pIC50 for this one >= 5? "MSAMTNLAALFPPEG"
Resp: no

====

- testedTarget: HLA-DR DRB1*0101 (DR1) (Homo sapiens, UniProt P01903+P01911, A100R/D57E/F55L/F60I/F76Y/I96L/L162R/M171V/P40L/Q125E/R42F/V115G/Y59C)
- protocolNotes: biochemical
- Format: binding
reportedProperty: pIC50
Units for pIC50: none; it is -log10 of a concentration expressed in mol/L.

Check out these entries, answers already filled in.
CC[C@H](C)[C@H](N)C(=O)N[C@@H](C)C(=O)NCC(=O)N[C@@H](CC(C)C)C(=O)N[C@@H](Cc1ccccc1)C(=O)N[C@@H](CC(C)C)C(=O)N[C@H](C(=O)N[C@H](C(=O)N[C@@H](CCC(=O)O)C(=O)N[C@@H](C)C(=O)N[C@H](C(=O)N[C@H](C(=O)N[C@@H](C)C(=O)N[C@@H](CC(=O)O)C(=O)N[C@@H](CCCCN)C(=O)O)C(C)C)C(C)C)[C@@H](C)O)[C@@H](C)O = 8.17
CC[C@H](C)[C@H](NC(=O)[C@H](CCCCN)NC(=O)[C@H](CC(N)=O)NC(=O)[C@@H](NC(=O)[C@@H](NC(=O)[C@H](CC(C)C)NC(=O)[C@@H](NC(=O)[C@H](CO)NC(=O)[C@H](CC(C)C)NC(=O)[C@H](C)N)[C@@H](C)O)C(C)C)C(C)C)C(=O)N[C@@H](CCCNC(=N)N)C(=O)NCC(=O)N[C@H](C(=O)N[C@@H](Cc1ccccc1)C(=O)N[C@@H](CCCCN)C(=O)O)[C@@H](C)O = 7.12

Let's switch to this compound now.
Req: Consider the compound "CC[C@H](C)[C@H](NC(=O)[C@H](Cc1ccc(O)cc1)NC(=O)[C@@H]1CCCN1)C(=O)N[C@@H](CC(C)C)C(=O)N[C@@H](CC(C)C)C(=O)N[C@H](C(=O)N[C@@H](CO)C(=O)N[C@@H](CO)C(=O)N[C@@H](CCCCN)C(=O)N[C@H](C(=O)N[C@@H](CO)C(=O)N[C@H](C(=O)N[C@H](C(=O)N[C@@H](CCCCN)C(=O)N[C@@H](CC(=O)O)C(=O)O)C(C)C)[C@@H](C)O)C(C)C)C(C)C" and give its measured pIC50.
Resp: 8.96

====

- testedTarget: HLA-DQ DQA1*0301/B*0301 (DQ7) (Homo sapiens, UniProt P01909+P01920, A209T/C70Q/DUP78-78/E183D/F237L/G63E/I129T/K197E/L178F/L74F/L98V/Q57E/Q76R/S185I/S97I/T49S/V73L)
- protocolNotes: biochemical
- Type: binding
No end group written: not given here.
reportedProperty: log10 of IC50 (log10 of the value in nM)
Heads up: the numbers are on a log10 scale; they represent IC50 in nM.

Check out these entries, answers already filled in.
WKRMEVGQQAVEVWQ = 4.14
IDVWLGGLAENFLPY = 2.31

Req: Consider the sequence "LQLHVDKAVSGLRSL" and give its measured log10 of IC50.
Resp: 1.94

Req: Consider the sequence GLALLSEAVLRGQAL [GLALLSEAVLRGQAL] and give its measured log10 of IC50.
Resp: 2.03

Req: Consider the sequence "QHLCGSHLVEALYLV" and give its measured log10 of IC50.
Resp: 3.41

Req: Consider the sequence "AHAAHAAHAAHAAHAA" and give its measured log10 of IC50.
Resp: 1.76

Req: Consider the sequence "SAAPLRTITADTFRK" and give its measured log10 of IC50.
Resp: 2.48

====

- testedTarget: HLA-DR DRB1*1101 (DR11) (Homo sapiens, UniProt P01903+P01911, A100R/A169T/A87E/I96F/K41T/L162R/M171V/P40S/Q125H/Q178H/Q39Y/Q99D/R42S/S66Y/T262R/V115G/W38E)
- Sequence (P01903 26-254 limits assumed, other chains not shown): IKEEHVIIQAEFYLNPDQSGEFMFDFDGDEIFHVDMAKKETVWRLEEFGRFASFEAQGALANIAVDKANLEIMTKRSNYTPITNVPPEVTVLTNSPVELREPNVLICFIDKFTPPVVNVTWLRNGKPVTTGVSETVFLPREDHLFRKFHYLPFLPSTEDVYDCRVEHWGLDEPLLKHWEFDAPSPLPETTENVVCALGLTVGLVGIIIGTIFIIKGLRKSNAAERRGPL
- protocolNotes: biochemical
- Assay type: binding
- conditionsUsed: DRB1 *1101
reportedProperty: IC50 (µM)
// return numeric value only (unit: µM, not printed)

Req: Consider the compound "CC[C@H](C)[C@H](NC(=O)[C@@H]1CCCN1C(=O)[C@H](CC(N)=O)NC(=O)[C@@H](N)Cc1c[nH]c2ccccc12)C(=O)N[C@@H](CC(C)C)C(=O)N[C@@H](CC(C)C)C(=O)N[C@@H](Cc1c[nH]c2ccccc12)C(=O)N[C@@H](CCC(N)=O)C(=O)N1CCC[C@H]1C(=O)N[C@H](C(=O)N1CCC[C@H]1C(=O)N[C@H](C(=O)N[C@@H](Cc1c[nH]cn1)C(=O)N[C@H](C(=O)N[C@H](C(=O)O)C(C)C)[C@@H](C)O)C(C)C)[C@@H](C)CC" and give its measured IC50.
Resp: 19.6
